Biological target: T1, human Myl12b-His (human, UniProt O14950 1-172)
T1 construct: Made in E. coli; GST tag cleaved with PreScission Protease; DTT-treated monomer
T1 sequence: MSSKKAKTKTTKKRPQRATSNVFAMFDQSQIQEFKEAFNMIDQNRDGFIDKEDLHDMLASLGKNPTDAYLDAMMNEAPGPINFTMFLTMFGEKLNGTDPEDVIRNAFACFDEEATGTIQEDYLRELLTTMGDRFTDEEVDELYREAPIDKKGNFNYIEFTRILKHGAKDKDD
Test: ELISA, human Myl12b-His coated, anti-human IgG-HRP

{"binder": "Humanized antibody No. 113 (antibody, human IgG2, kappa, V domains shown, human IgG2 (V234A, G237A, C-terminal Lys deleted) / kappa; Expi293F, Protein A purified; also called HK1-6/L1-5) VH: QVQLVQSGAEVKKPGSSVKVSCKASGGTFSDYEMHWVRQAPGQGLEWMGAIDPETGGTAYNQKFKGRVTITADKSTSTAYMELRSLRSEDTAVYYCADYDYDGFAYWGQGTLVTVSS VL: DIVMTQSPLSLSITPGEQASISCRSSQSLVHSNGNTYLHWYLQKPGQSPQLLISKVSNRFSGVPDRFSGSGSGTDFTLKISRVEAEDVGVYFCSQNTHVPPLTFGGGTKVEIKR", "binding result": "binds"}
{"binder": "Humanized antibody No. 116 (antibody, human IgG2, kappa, V domains shown, human IgG2 (V234A, G237A, C-terminal Lys deleted) / kappa; Expi293F, Protein A purified; also called HK2-5/L1-5) VH: QVQLVQSGAEVKKPGASVKVSCKASGYTFTDYEMHWVRQAPGQGLEWMGAIDPETGGTAYNQKFKGRVTMTADTSTSTAYMELSSLRSEDTAVYYCADYDYDGFAYWGQGTLVTVSS VL: DIVMTQSPLSLSITPGEQASISCRSSQSLVHSNGNTYLHWYLQKPGQSPQLLISKVSNRFSGVPDRFSGSGSGTDFTLKISRVEAEDVGVYFCSQNTHVPPLTFGGGTKVEIKR", "binding result": "binds"}
{"binder": "Humanized antibody No. 134 (antibody, human IgG2, kappa, V domains shown, human IgG2 (V234A, G237A, C-terminal Lys deleted) / kappa; Expi293F, Protein A purified; also called HK3-2/L4-2) VH: QVQLVQSGSELKKPGASVKVSCKASGYTFTDYEMHWVRQAPGQGLEWMGAIDPETGGTAYNQKFKGRFVFSLDTSVSTAYLQISSLKAEDTAVYYCADYDYDGFAYWGQGTLVTVSS VL: DIVMTQTPLSSPVTLGQPASISCRSSQSLVHSNGNTYLHWYQQRPGQPPRLLISKVSNRFSGVPDRFSGSGAGTDFTLKISRVEAEDVGVYFCSQNTHVPPLTFGGGTKVEIKR", "binding result": "binds"}
